# EXPERIMENTAL TARGET: kappa opioid receptor (OPRK1) (Homo sapiens (Human), UniProt P41145)
# Sequence (P41145 whole entry): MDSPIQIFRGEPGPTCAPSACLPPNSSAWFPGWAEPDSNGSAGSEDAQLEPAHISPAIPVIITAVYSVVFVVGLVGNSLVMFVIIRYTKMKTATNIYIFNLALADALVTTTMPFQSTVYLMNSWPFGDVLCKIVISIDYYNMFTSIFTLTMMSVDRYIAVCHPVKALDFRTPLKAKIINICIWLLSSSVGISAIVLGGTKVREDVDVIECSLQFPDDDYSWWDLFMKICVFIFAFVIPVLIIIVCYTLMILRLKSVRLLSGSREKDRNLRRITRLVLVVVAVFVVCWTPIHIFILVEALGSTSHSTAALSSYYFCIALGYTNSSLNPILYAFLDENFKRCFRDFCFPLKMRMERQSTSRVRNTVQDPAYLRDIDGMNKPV
# PROCEDURE TEXT: OPRK1 antagonist assay (b-arrestin-2-TEV / b-lactamase reporter, EC80 U-50488 challenge)
# EXPERIMENTAL PARAMETERS: OPRK1 antagonist assay vs EC80 U-50488
OBSERVABLE: IC50

Record "CCC(CC)C(=O)NC1CCN(c2nc3ccc(C)cc3cc2-c2nc(C)no2)CC1" ; system kappa opioid receptor (OPRK1) (Homo sapiens (Human), UniProt P41145); IC50 = > 10 µM

Record "Cc1ccc2nc(NCCCNC3CCCCC3)c(-c3nc(C)no3)cc2c1" ; system kappa opioid receptor (OPRK1) (Homo sapiens (Human), UniProt P41145); IC50 = > 10 µM

Record O=Cc1cc(Br)cnc1N1CCC(NC2CCCCC2)C(O)C1 (stereo not drawn) ; system kappa opioid receptor (OPRK1) (Homo sapiens (Human), UniProt P41145); IC50 = > 10 µM

Record "CN(C)C(=O)c1cc(Br)cnc1N1CCC(NC2CCCCC2)CC1" ; system kappa opioid receptor (OPRK1) (Homo sapiens (Human), UniProt P41145); IC50 = > 10 µM

Record COC(=O)c1cc(Br)cnc1N1CCCC(NC2CCCCC2)C1 (stereo not drawn) ; system kappa opioid receptor (OPRK1) (Homo sapiens (Human), UniProt P41145); IC50 = > 10 µM

Record "COC(=O)c1cc(Br)cnc1N1CCC(N2CCN(C)CC2)CC1" ; system kappa opioid receptor (OPRK1) (Homo sapiens (Human), UniProt P41145); IC50 = > 10 µM

---

# EXPERIMENTAL TARGET: kappa opioid receptor (OPRK1) (Homo sapiens (Human))
# PROCEDURE TEXT: OPRK1 antagonist assay (b-arrestin-2-TEV / b-lactamase reporter, EC80 U-50488 challenge)
# EXPERIMENTAL PARAMETERS: OPRK1 antagonist assay vs EC80 U-50488
This listing pairs compounds with measured pIC50.
Please note pIC50 is a logarithmic value: minus log10 of concentration in mol/L. Answer with that number alone.

- COMPOUND: "COC(=O)c1cnc(N2CCC(NC3CCCCC3)C(O)C2)c(Br)c1 (stereo not shown)"
  pIC50: 6.86
- COMPOUND: "Cc1cc(C(=O)N(C)C)c(N2CCC(NC3CCCCC3)CC2)nn1"
  pIC50: 6.55

# ---- query compound ----
pIC50 reported for this compound "CO[C@H]1CN(c2nc3c(C)cc(C)cc3cc2-c2nc(C)no2)CC[C@H]1NC1CCCCC1" : 8.52

---

# EXPERIMENTAL TARGET: kappa opioid receptor (OPRK1) (Homo sapiens (Human))
# PROCEDURE TEXT: OPRK1 antagonist assay (b-arrestin-2-TEV / b-lactamase reporter, EC80 U-50488 challenge)
# EXPERIMENTAL PARAMETERS: OPRK1 antagonist assay vs EC80 U-50488
OBSERVABLE: IC50

Below are worked cases with known answers.
- COMPOUND STRING: "COC(=O)c1cc(C2CC2)cnc1N1CCC(NC2CCCCC2)CC1"
  MEAS VALUE: "> 10 µM"
- COMPOUND STRING: "Cc1ccc2nc(N3CCC(N)CC3)c(-c3nc(C)no3)cc2c1"
  MEAS VALUE: "> 10 µM"

# ---- query molecule ----
IC50 reported for this molecule "CCCCOC(=O)c1cc(Br)cnc1N1CCC(NC2CCCCC2)CC1" : > 10 µM

Data provenance is patent US9682966B2.
